- target_system: T1, HER2 receptor on the surface of NCI-N87 cells (human, UniProt P04626 23-1255)
- T1 construct: whole, on cells; also called HER2 on tumor cell surface
- assay_protocol: flow cytometry on NCI-N87 cells, PE-labelled secondary antibody
- Procedure: HER2 overexpressing gastric cancer cell line NCI-N87 was used as the target cell. 100 μL of the test antibody diluted in a 10 folds gradient was used as the primary antibody. It was mixed with 1×10⁵ tumor cells suspended in 100 μL RPMI-1640 serum-free medium at final concentrations of 10 μg/mL, 1 μg/mL, and 0.1 μg/mL. […] Finally, the cells were resuspended in 200 μL PBS and analyzed by flow cytometry to determine the binding affinity of the test antibody to HER2 on the corresponding cell surface.
observable: pEC50
Conceptually, pEC50 converts a concentration in mol/L into minus its log10.

Read off the recorded pEC50 for HER2 VHH-FC1 fusion protein 1-C10 (Fc fusion, 25; also called 1-C10-FC1; chimeric nanobody 1-C10) QVQLVESGGDLVQPGGSLRLSCATSGLTFRRYELKWYRQAPGKERELVAGITPASGSRNYADSVKGRFTISRDDAKMTVYLQMNSLEPEDTAVYYCNAYWMIPQHIENNYWGKGTLVTVSSEPKSSDKTHTCPPCPAPEFEGGPSVFLFPPKPKDTLMISRTPEVTCVVVDVSHEDPEVKFNWYVDGVEVHNAKTKPREEQYNSTYRVVSVLTVLHQDWLNGKEYKCKVSNKALPASIEKTISKAKGQPREPQVYTLPPSRDELTKNQVSLTCLVKGFYPSDIAVEWESNGQPENNYKTTPPVLDSDGSFFLYSKLTVDKSRWQQGNVFSCSVMHEALHNHYTQKSLSLSPGK
8.58
